# assay_details: Drug concentrations in compartments of the murine FRT after IP dosing
# Type: in vivo, mouse
# experimental_context: mouse, uterus; female mice, 10 mg/kg IP, 0.5 hr; read-out: Uterus concentration
value_kind: concentration at 0.5 hr

chem_smiles=O=C(c1ccc(OCc2ccc(OC(F)(F)F)cc2)cc1)N1CCN(c2ccc(C(F)(F)F)cn2)CC1 obs_value="11.3 µM"

* * *

# assay_details: Drug concentrations in compartments of the murine FRT after IP dosing
# Format: in vivo, mouse
# experimental_context: mouse, ovary; female mice, 10 mg/kg IP, 6 hr; read-out: Ovary concentration
value_kind: concentration at 6 hr (µM)

chem_smiles=O=C(c1ccc(OCc2ccc(OC(F)(F)F)cc2)cc1)N1CCN(c2ccc(C(F)(F)F)cn2)CC1 obs_value=3.54

* * *

# assay_details: Intrinsic clearance in liver microsomes
# Format: in vitro ADME, mouse
# experimental_context: mouse liver microsomes
value_kind: Mouse CLhep, % Hepatic blood flow (%)

compound="Cc1cc(Cl)cc2sc(O[C@H]3CCN(C(=O)CCCS(=O)(=O)c4cccc(Br)c4)C[C@H]3F)nc12 [VU6047606]" obs_value=93
compound="O=C(c1ccc(OCc2ccc(OC(F)(F)F)cc2)cc1)N1CCN(c2ccc(C(F)(F)F)cn2)CC1 [VU6032735]" obs_value=56
compound="Cc1cc(Cl)cc2sc(O[C@@H]3CCN(C(=O)CCCS(=O)(=O)c4cccc(Br)c4)C[C@H]3F)nc12 [VU6047607]" obs_value=98
compound="Cc1cc(Cl)cc2sc(O[C@@H]3CCN(C(=O)CCCS(=O)(=O)c4cccc(Br)c4)C[C@@H]3F)nc12 [VU6047608]" obs_value=95
compound="Cc1cc(Cl)cc2sc(O[C@H]3CCN(C(=O)CCCS(=O)(=O)c4cccc(Br)c4)C[C@@H]3F)nc12 [VU6047609]" obs_value=97

* * *

Entries and their CLhep predicted at 1 μM values follow.
# assay_details: Intrinsic clearance in liver microsomes
# Format: in vitro ADME, mouse
# experimental_context: mouse, liver microsomes, pH 7.4, mouse liver microsomes; read-out: Mouse CLhep (in vitro hepatic clearance from microsomal CLint)
value_kind: CLhep predicted at 1 μM (mL/min/kg)

chem_smiles=Cc1cc(Cl)cc2sc(O[C@H]3CCN(C(=O)CCCS(=O)(=O)c4cccc(Br)c4)C[C@H]3F)nc12 prefix_operator=> obs_value=60
chem_smiles=Cc1cc(Cl)cc2sc(O[C@H]3CCN(C(=O)CCCS(=O)(=O)c4cccc(Br)c4)C[C@@H]3F)nc12 prefix_operator== obs_value=87.6
chem_smiles=Cc1cc(Cl)cc2sc(O[C@@H]3CCN(C(=O)CCCS(=O)(=O)c4cccc(Br)c4)C[C@@H]3F)nc12 prefix_operator== obs_value=85.9
chem_smiles=O=C(c1ccc(OCc2ccc(OC(F)(F)F)cc2)cc1)N1CCN(c2ccc(C(F)(F)F)cn2)CC1 prefix_operator== obs_value=50.1
chem_smiles=Cc1cc(Cl)cc2sc(O[C@@H]3CCN(C(=O)CCCS(=O)(=O)c4cccc(Br)c4)C[C@H]3F)nc12 prefix_operator== obs_value=88.1

* * *

# target_system: UniProtKB Q12809
# Sequence (Q12809 whole entry): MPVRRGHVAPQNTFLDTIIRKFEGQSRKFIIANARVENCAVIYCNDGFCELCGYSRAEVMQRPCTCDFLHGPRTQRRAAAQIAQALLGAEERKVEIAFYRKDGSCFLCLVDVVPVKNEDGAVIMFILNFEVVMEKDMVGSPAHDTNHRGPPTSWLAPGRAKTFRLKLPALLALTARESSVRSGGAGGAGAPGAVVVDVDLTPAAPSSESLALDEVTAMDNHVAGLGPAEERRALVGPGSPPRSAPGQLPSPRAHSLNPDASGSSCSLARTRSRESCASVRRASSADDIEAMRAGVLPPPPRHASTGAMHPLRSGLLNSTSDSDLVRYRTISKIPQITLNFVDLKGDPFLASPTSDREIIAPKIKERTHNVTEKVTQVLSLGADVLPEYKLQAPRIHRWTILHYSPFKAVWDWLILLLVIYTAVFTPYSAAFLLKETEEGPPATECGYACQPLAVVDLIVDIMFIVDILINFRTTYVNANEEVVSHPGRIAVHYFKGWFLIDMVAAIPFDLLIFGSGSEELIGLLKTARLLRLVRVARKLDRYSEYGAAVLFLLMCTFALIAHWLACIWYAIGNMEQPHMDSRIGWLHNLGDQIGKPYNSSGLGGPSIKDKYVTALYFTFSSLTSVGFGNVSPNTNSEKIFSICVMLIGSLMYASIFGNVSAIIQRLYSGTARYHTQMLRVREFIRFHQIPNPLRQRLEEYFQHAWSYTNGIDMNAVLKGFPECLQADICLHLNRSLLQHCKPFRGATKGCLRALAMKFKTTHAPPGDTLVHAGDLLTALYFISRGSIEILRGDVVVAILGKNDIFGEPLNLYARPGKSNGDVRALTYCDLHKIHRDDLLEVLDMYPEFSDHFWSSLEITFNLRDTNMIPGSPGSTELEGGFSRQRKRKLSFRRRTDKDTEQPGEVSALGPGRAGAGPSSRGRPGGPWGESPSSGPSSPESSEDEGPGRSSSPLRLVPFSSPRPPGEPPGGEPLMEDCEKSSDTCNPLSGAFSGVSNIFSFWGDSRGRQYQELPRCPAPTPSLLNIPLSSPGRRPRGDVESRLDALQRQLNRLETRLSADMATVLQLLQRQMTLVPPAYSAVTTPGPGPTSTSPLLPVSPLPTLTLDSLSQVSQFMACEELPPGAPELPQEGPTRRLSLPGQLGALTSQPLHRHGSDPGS
# assay_details: LeadProfilingScreen radioligand binding
# experimental_context: probe [3H]Dofetilide
Entries and their inhibition at 10 µM values follow.
value_kind: inhibition at 10 µM

chem_smiles=Cc1cc(Cl)cc2sc(O[C@H]3CCN(C(=O)CCCS(=O)(=O)c4cccc(Br)c4)C[C@H]3F)nc12 value_kind="inhibition at 10 µM" obs_value=72%
chem_smiles=O=C(c1ccc(OCc2ccc(OC(F)(F)F)cc2)cc1)N1CCN(c2ccc(C(F)(F)F)cn2)CC1 value_kind="inhibition at 10 µM" obs_value=9%
